Listing: IC50 of selected binders
Molecular target: T1, human IL-17A (human, UniProt Q16552 24-155)
T1 construct: The immunogen was IL-17A protein, R&D Systems Cat #3012; also called Interleukin-17A; Hu IL-17
T1 sequence (Q16552 24-155 limits assumed): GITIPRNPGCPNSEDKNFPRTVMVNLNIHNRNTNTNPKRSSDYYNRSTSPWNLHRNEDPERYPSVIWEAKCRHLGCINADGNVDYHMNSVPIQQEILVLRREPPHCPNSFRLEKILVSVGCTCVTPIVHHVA
Test: IL-17A/IL-17R blocking ELISA
Could you give me the number in nM? Just the number is fine.

Below, each entry is followed by its recorded IC50 result.
{"columns": ["binder", "value.measured"],
 "data": [
  ["24F11E4 (antibody, mouse IgG1, V domains shown, amino acids 1-19 are stated as the leader; also called A5) VH: QVQLQQPGAELVMPGASVRLSCKASGYTFTNYWIHWVKQRPGQGLEWIGEIDPSDTFTNYSPKFKGKATLTVDKSSSTAYMQLTGLTSEDSAVYFCARSGIYYDYYEDYWGQGTTLTVSS VL: DVVMTQTPLSLPVSLGDQVSISCRSSQILLHSNGNTYLHWYLQKPGQSPKLLIYKVSNRFSGVPDRFSGSGSGTDFTLKISRVEADDLGVYFCSQSVHVPTFGGGTKLEIK", 2.15],
  ["22E2G4 (antibody, mouse IgG1, V domains shown, amino acids 1-19 are stated as the leader; also called A3) VH: QVQLQQPGAELVMPGTSVRLSCKASGYTFTSYWMHWVKQRPGQGLEWIGEIDPSDTYTNYNPKFKGKATLTVDKSSSTAYMQFTSLTSEDSAVYYCARSGIYYDYYEDYWGQGTTLTVSS VL: DVVMTQTPLSLPVSLGDQASISCRSSQILLHSNGNTYLHWYLQKPGQSPKLLIYKVSNRFSGVPDRFSGSGSGTDFTLKISRVEAEDLGVYFCSQSVHVPTFGGGTKLEIK", 3.04],
  ["23A4D8 (antibody, mouse IgG2a, V domains shown, also called Murine 23A4D8; parental) VH: EVQLQQSGPELVKPGASVKISCKASGFTFTDYYMNWMKQSHGKSLEWIGDINPKNGGTIFNQNFRGKATLTVDKSSSTAYMELRSLTSEDSAVYYCARSILTGPFYFDYWGQGTTLTVSS VL: DIVLTQSPASLAVSLGQRAIISCKASQSVSFAGTGLMHWYQQKSGQQPKLLISRASNLEAGVPTRFSGSGSRTDFTLNIHPVEEDDAATYYCQQTMEYPTFGGGTKLEIK", 2.07],
  ["8A5G4 (antibody, V domains shown, amino acids 1-19 are stated as the leader; also called A2) VH: QVELKESGPGLVAPSQSLSITCTVSGFSLTSYGVYWVRQPPGKGLEWLVVIWSDGTTTYNSALKSRLSISKDNSKSQVFLKMNSLQTDDTAMYYCARQGDNYSYAVDYWGQGTAVTVSS VL: DVVMIQIPLSLPVSLGDQASISCRSSQSLVHSNGNTYLHWYLQKPGQSPKLLIYKVFNRFSGVPDRFSGSGSGTDFTLKISRVEAEDLGVYFCSQSTHAPLTFGAGTKLELK", 1.65],
  ["26G11B11 (antibody, mouse IgG1, V domains shown, amino acids 1-19 are stated as the leader; also called A6) VH: QVQLQQPGAELVMPGASVKLSCKAAGYTFTSYWMHWVKQRPGQGLEWIGEIDPSDSYTNYNQKFKGKATLTVDKSSSTAYMQLSSLTSEDSAVYYCARSGIYYDYYEDYWGQGTTLTVSS VL: DVVMTQTPLSLPVSLGDQASISCRSSQSLVHSNGNTYLHWYLQKPGQSPKLLIYKVSNRFSGVPDRFSGSGSGTDFTLKISRVEAEDLGVYFCSQSIHVPTFGGGTKLEIK", 2.19]
]}

Req: What does the data say about its IC50? Entry: 4H11C7 (antibody, mouse IgG1, V domains shown, amino acids 1-19 are stated as the leader; also called A1) VH: QVTLKESGPGILQPSQTLSLTCSFSGFSLNTFGMGVDWIRQPSGKGLEWLAHIWWDDDKYYNPALESRLTISKDASKNQVFLKIANVDTADTATYYCSRRELGPYFFDYWGQGTTLTVSS VL: GVLMTQTPLSLPVSLGDQASISCRSSQSIVHSNGNTYLEWYLQKPGQSPKLLIYKVSNRFSGVPDRFSGSGSGTDFTLKINRVEAEDLGVYYCFQGSHFPYTFGGGTKLEID
Resp: 2.44
